Where do the numbers come from? From patent US20250009745A1.

measured.target: CDK2 (Homo sapiens)
Construct: purchased Carna Company
run.description: CDK enzymology experiment in vitro, capillary mobility shift assay (MSA)
Assay type: biochemical
condition.summary: read-out: CDK2 (nM) inhibitory IC50
Source text: CDK1/CDK2/CDK4/CDK6/CDK7/CDK9 were purchased from Carna Company; Carliper substrate CTD3/substrate 18/substrate 8 were purchased from Gil Biochemical Company; Dinaciclib/Palbociclib were purchased from Selleckchem Company; DMSO was purchased from Sigma Company; 384-well plates were purchased from Corning Company. […]
property.measured: IC50

Query: Find the measured IC50: item Cn1cc(-c2ccc(S(=O)(=O)N3CCC(Nc4ncc(C#N)c(N[C@@H]5CCC[C@H]5O)n4)CC3)cc2)cn1 [Compound 60] , target or system CDK2 (Homo sapiens).
Response: 0.5 to 2.5 nM

Query: Find the measured IC50: item O=S(=O)(c1ccccn1)N1CCC(Nc2ncc(C(F)(F)F)c(O[C@H]3CCOC3)n2)CC1 , target or system CDK2 (Homo sapiens).
Response: 0.5 to 2.5 nM

Query: Find the measured IC50: item O=S(=O)(c1ccc(C2CCCNC2)cc1)N1CCC(Nc2ncc(C(F)(F)F)c(O[C@H]3CCOC3)n2)CC1 (stereo partly shown) , target or system CDK2 (Homo sapiens).
Response: 0.5 to 2.5 nM

Query: Find the measured IC50: item CS(=O)(=O)N1CCC(Nc2ncc(C(F)(F)F)c(NC3CCCC3)n2)CC1 , target or system CDK2 (Homo sapiens).
Response: 2.5 to 10 nM

Query: Find the measured IC50: item NC(=O)Cn1cc(S(=O)(=O)N2CCC(Nc3ncc(C(F)(F)F)c(O[C@H]4CCOC4)n3)CC2)cn1 , target or system CDK2 (Homo sapiens).
Response: < 0.5 nM

Query: Find the measured IC50: item O=S(=O)(c1ccc(C2CCNCC2)cc1)N1CCC(Nc2ncc(C(F)(F)F)c(O[C@H]3CCOC3)n2)CC1 , target or system CDK2 (Homo sapiens).
Response: < 0.5 nM

Query: Find the measured IC50: item CN(C)CCN(c1nc(NC2CCN(S(=O)(=O)c3cnn(C)c3)CC2)ncc1C#N)C1CCCC1 , target or system CDK2 (Homo sapiens).
Response: 10 to 50 nM
